# target_system: Voltage-gated L-type calcium channel (Rattus norvegicus, UniProt P22002+Q02485+P27732)
# protocol_description: Inhibition of L-type calcium channel in Rattus norvegicus Wistar (rat) thoracic aorta assessed as relaxation of phenylephrine-induced vasoconstriction after 30 min relative to control
# Type: tissue-based
measured_attribute: IC50 (nM)

- COC(=O)C1=C(C)NC(C)=C(C(=O)OC)C1c1cccc(OCC(=O)N2CCN(C)CC2)c1: 9540
- COC(=O)COc1cccc(C2C(C(=O)OC)=C(C)NC(C)=C2C(=O)OC)c1: 1440
- COC(=O)C1=C(C)NC(C)=C(C(=O)OC)C1c1ccc(OCC(=O)N2CCCC2)c(OC)c1: 830
- COC(=O)C1=C(C)NC(C)=C(C(=O)OC)C1c1ccc(OCC(=O)N2CCN(C)CC2)c(OC)c1: 6910

(P) COC(=O)C1=C(C)NC(C)=C(C(=O)OC)C1c1cccc(OCC(=O)N2CCOCC2)c1
(Q) COC(=O)C1=C(C)NC(C)=C(C(=O)OC)C1c1ccc(OCC(=O)N2CCCC(C)C2)c(OC)c1 (configuration not stated)
(R) COC(=O)C1=C(C)NC(C)=C(C(=O)OC)C1c1cccc(OCC(=O)N2CCCC2)c1
input: Sort (3 compounds) by IC50: min first. Give the labels in the order requested.
output: P, Q, R
(P: 640 nM, Q: 1730 nM, R: 4570 nM)

* * *

# target_system: Voltage-gated L-type calcium channel (Rattus norvegicus, UniProt P22002+Q02485+P27732)
# protocol_description: Inhibition of L-type calcium channel in neonatal rat cortical neurons assessed as inhibition of veratridine-induced intracellular calcium level incubated for 30 min followed by veratridine induction for 2 min by fluorimetric analysis
# Type: cell-based
measured_attribute: IC50 (µM)

* COC(=O)C1=C(C)NC(C)=C(C(=O)OC)C1c1cccc(OCC(=O)N2CCOCC2)c1 | 9.9
* COC(=O)C1=C(C)NC(C)=C(C(=O)OC)C1c1ccc(OCC(=O)N2CCCC2)c(OC)c1 | 5.6
* COC(=O)COc1cccc(C2C(C(=O)OC)=C(C)NC(C)=C2C(=O)OC)c1 | 10

(a) COC(=O)COc1ccc(C2C(C(=O)OC)=C(C)NC(C)=C2C(=O)OC)cc1
(b) COC(=O)C1=C(C)NC(C)=C(C(=O)OC)C1c1cccc(OCC(=O)N2CCCCC2)c1
(c) COC(=O)C1=C(C)NC(C)=C(C(=O)OC)C1c1cccc(OCC(=O)N2CCCC2)c1
input: Ordering criterion: IC50; begin with the maximum. Provide the labels, sequenced as the question asks.
output: b, c, a

* * *

# target_system: Voltage-gated L-type calcium channel (Rattus norvegicus, UniProt P22002+Q02485+P27732)
# protocol_description: Inhibition of L-type calcium channel in Rattus norvegicus Wistar (rat) thoracic aorta assessed as relaxation of phenylephrine-induced vasoconstriction after 30 min relative to control
# Format: tissue-based
measured_attribute: pIC50

• COC(=O)C1=C(C)NC(C)=C(C(=O)OC)C1c1cccc(OCC(=O)N2CCN(C)CC2)c1 = 5.02
• COC(=O)COc1cccc(C2C(C(=O)OC)=C(C)NC(C)=C2C(=O)OC)c1 = 5.84
• COC(=O)C1=C(C)NC(C)=C(C(=O)OC)C1c1cccc(OCC(=O)N2CCCC2)c1 = 5.34
• COC(=O)C1=C(C)NC(C)=C(C(=O)OC)C1c1ccc(OCC(=O)N2CCCC2)c(OC)c1 = 6.08
• COC(=O)C1=C(C)NC(C)=C(C(=O)OC)C1c1cccc(OCC(=O)N2CCOCC2)c1 = 6.19
• COC(=O)C1=C(C)NC(C)=C(C(=O)OC)C1c1ccc(OCC(=O)N2CCN(C)CC2)c(OC)c1 = 5.16
• COC(=O)C1=C(C)NC(C)=C(C(=O)OC)C1c1ccc(OCC(=O)N2CCCC(C)C2)c(OC)c1 (configuration not stated) = 5.76
